Measured fold change of affinity values are reported for all entries that follow.
biological target: T1, Human CD137 ECD (human); test: SPR, vs parent H183/L072
T1 construct: also called 4-1BB
T1 sequence (chain, as listed by the source limits assumed): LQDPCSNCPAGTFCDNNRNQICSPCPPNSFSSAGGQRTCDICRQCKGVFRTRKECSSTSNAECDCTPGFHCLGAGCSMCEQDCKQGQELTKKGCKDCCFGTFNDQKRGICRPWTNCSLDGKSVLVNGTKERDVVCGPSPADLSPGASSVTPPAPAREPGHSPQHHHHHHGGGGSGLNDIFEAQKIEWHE
# value in fold; strip the unit string

Q. Input dBBDu183H P61T / dBBDu072L (antibody, name in Kabat numbering, V domains shown, as m1, one VH change) VH: QVQLVESGGGLVQPGRSLRLSCAASGFTFSNAWMHWVRQAPGKGLEWVAQIKDKGNAYAAYYATSVKGRFTISRDDSKNSIYLQMNSLKTEDTAVYYCHYVHYASASTVLPAFGVDAWGQGTTVTVSS VL: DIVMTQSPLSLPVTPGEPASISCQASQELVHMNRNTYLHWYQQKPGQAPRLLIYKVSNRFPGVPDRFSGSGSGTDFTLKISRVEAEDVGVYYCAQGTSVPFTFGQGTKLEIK , output reported fold change of affinity.
A. 1.4

Q. Given dBBDu183H F100gQ / dBBDu072L (antibody, name in Kabat numbering, V domains shown, as m1, one VH change) VH: QVQLVESGGGLVQPGRSLRLSCAASGFTFSNAWMHWVRQAPGKGLEWVAQIKDKGNAYAAYYAPSVKGRFTISRDDSKNSIYLQMNSLKTEDTAVYYCHYVHYASASTVLPAQGVDAWGQGTTVTVSS VL: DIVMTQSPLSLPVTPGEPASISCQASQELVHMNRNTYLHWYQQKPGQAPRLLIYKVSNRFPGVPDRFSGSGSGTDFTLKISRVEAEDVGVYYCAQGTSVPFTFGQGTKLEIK , respond with its fold change of affinity.
A. 0.8

Q. Recall and state the measured fold change of affinity for dBBDu183H G65D / dBBDu072L (antibody, name in Kabat numbering, V domains shown, as m1, one VH change) VH: QVQLVESGGGLVQPGRSLRLSCAASGFTFSNAWMHWVRQAPGKGLEWVAQIKDKGNAYAAYYAPSVKDRFTISRDDSKNSIYLQMNSLKTEDTAVYYCHYVHYASASTVLPAFGVDAWGQGTTVTVSS VL: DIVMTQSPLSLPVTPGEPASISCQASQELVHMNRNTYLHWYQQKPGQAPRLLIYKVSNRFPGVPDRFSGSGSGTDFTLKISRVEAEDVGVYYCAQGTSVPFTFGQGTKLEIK .
A. 1.3
